Tested on: MRSA Staphylococcus aureus 700699
Assay: MIC of antibiotics against MRSA Staphylococcus aureus 700699 with or without spermine
Type: cell-based
Conditions: Staphylococcus aureus, MRSA; no spermine; read-out: MICs in the absence or presence of spermine: No add
outcome measure: MIC (µg/mL)
One number for each entry, in µg/mL.

In [3]: df
Out[3]:
                                   molecule  outcome_measure  numeric_value
0  CN(C)[C@@H]1C(O)=C(C(N)=O)C(=O)[C@@]2(O)C(O)=C3C(=O)c4c(O)cccc4[C@@](C)(O)[C@H]3C[C@@H]12 [Tetracycline]              MIC             32

# per-item lookup of MIC; items listed below
1. O=C(N[C@H](CO)[C@H](O)c1ccc([N+](=O)[O-])cc1)C(Cl)Cl [Chloramphenicol]
2. CC1(C)S[C@@H]2[C@H](NC(=O)[C@H](C(=O)O)c3ccsc3)C(=O)N2[C@H]1C(=O)O [Ticarcillin]

Result:
1. 8
2. 256

----------
Task for the reader: assign each of the following compounds its reported MIC.
System: MRSA Staphylococcus aureus 700699
Assay: MIC of antibiotics against MRSA Staphylococcus aureus 700699 with or without spermine
Assay type: cell-based
Settings: Staphylococcus aureus, MRSA; no spermine; read-out: MICs in the absence or presence of spermine: No add

                                   compound                        system_name  outcome_measure       result
0  CC1(C)S[C@@H]2[C@H](NC(=O)[C@H](N)c3ccccc3)C(=O)N2[C@H]1C(=O)O [Ampicillin]  MRSA Staphylococcus aureus 700699              MIC   ≥ 32 µg/mL
1  CO[C@@]1(NC(=O)C(C(=O)O)c2ccc(O)cc2)C(=O)N2C(C(=O)O)=C(CSc3nnnn3C)CO[C@@H]21 (stereo partly drawn) [Moxalactam]  MRSA Staphylococcus aureus 700699              MIC  > 512 µg/mL

Proceed to the following item.
Ask: For the compound Cc1onc(-c2ccccc2)c1C(=O)N[C@@H]1C(=O)N2[C@@H]1SC(C)(C)[C@@H]2C(=O)O [Oxacillin] , report MIC.
Result: ≥ 256 µg/mL
